- Tested on: Streptococcus pneumoniae
- Test method notes: Antibacterial activity against penicillin intermediate Streptococcus pneumoniae clinical isolate by broth microdilution method
- Assay type: functional
Endpoint label: MIC90 (µg/mL)
State the answer as a number, implicitly in µg/mL.

Q: Entry `CCCCCCCCCCNCCN[C@@]1(C)C[C@H](O[C@H]2[C@H](Oc3c4cc5cc3Oc3ccc(cc3Cl)[C@@H](O)[C@@H](NC(=O)[C@@H](CC(C)C)NC)C(=O)N[C@@H](CC(N)=O)C(=O)N[C@H]5C(=O)N[C@H]3C(=O)N[C@H](C(=O)N[C@H](C(=O)O)c5cc(O)c(CNCP(=O)(O)O)c(O)c5-c5cc3ccc5O)[C@H](O)c3ccc(c(Cl)c3)O4)O[C@H](CO)[C@@H](O)[C@@H]2O)O[C@@H](C)[C@H]1O` : reported MIC90 = ?
A: 0.06

Q: Entry `CC1(C)S[C@@H]2[C@H](NC(=O)Cc3ccccc3)C(=O)N2[C@H]1C(=O)O` : reported MIC90 = ?
A: 1
